# MRT last annotations
assay: MRT (0 to 8 hrs) in mouse at 0.1 mg/kg, iv or 1 mg/kg, po measured; format: ADME, organism-based; conditions: in vivo
MEASURED_METRIC: MRT last (h)

>>> recorded_value("C[C@H]1[C@H](c2ccc(F)cc2)OC(=O)N1c1cc(C#N)cc(C#N)c1")
4
>>> recorded_value("C[C@H]1[C@H](c2ccc(F)cc2)OC(=O)N1c1cc(Cl)cc(C#N)c1")
4.2

----------
Below: a set of entries, each annotated with reported AUC(0-t) at 8 h.
assay: AUC (0 to 8 hrs) in mouse at 1 mg/kg, po administered as cassette dose; format: ADME, organism-based; design: time < 8 hr, dose 1 mg/kg, route oral; conditions: in vivo
MEASURED_METRIC: AUC(0-t) at 8 h (ng·h/mL)

>>> recorded_value("C[C@H]1[C@H](c2ccc(F)cc2)OC(=O)N1c1cc(F)cc(C#N)c1 (racemic)")
1200
>>> recorded_value("C[C@H]1[C@H](c2ccc(F)cc2)OC(=O)N1c1cccc(C#N)c1")
2080

----------
tested on: Liver; experiment: Metabolic stability in human liver microsomes; format: ADME, microsome
Stability of 40 µL/min/mg or higher: Satisfied. Under 40 µL/min/mg: Not satisfied.

>>> cat("O=C1OC(c2ccc(F)cc2)CN1c1cccc(Cl)c1 (racemic)")
"Satisfied"
>>> cat("O=C1OC(c2ccc(F)cc2)CN1c1ccccc1 (racemic)")
"Satisfied"
>>> cat("C[C@@H]1[C@H](c2ccc(F)cc2)OC(=O)N1c1cccc(C#N)c1 (racemic)")
"Not satisfied"
>>> cat("N#Cc1cccc(N2C[C@H](c3ccc(F)cc3)OC2=O)c1")
"Not satisfied"
>>> cat("O=C1OC(c2ccc(F)cc2)CN1c1cccc(F)c1 (racemic)")
"Satisfied"

----------
test: Cmax in dog at 5 mg/kg, iv; format: ADME, organism-based, Canis lupus familiaris; set-up: dose 5 mg/kg, route intravenous; conditions: in vivo
MEASURED_METRIC: Cmax (ng/mL)

>>> recorded_value("C[C@H]1[C@H](c2ccc(F)cc2)OC(=O)N1c1cc(C#N)cc(C#N)c1")
7150

----------
test system: Liver; test: Drug metabolism in mouse liver assessed as 5-(4-fluorophenyl)-3-(3-hydroxyphenyl)oxazolidin-2-one formation at 488 mg/kg/day, po by LC-MS/MS analysis; type: ADME, organism-based; settings: in vivo
MEASURED_METRIC: Drug metabolism

>>> recorded_value("COc1cccc(N2CC(c3ccc(F)cc3)OC2=O)c1 (racemic)")
"0.51 to 1.21 µg/g"

----------
assay: Cmax in ApoE knockout mouse at 1 mg/kg, po qd dosed via gavage for 2 weeks by HPLC analysis; type: ADME, organism-based; parameters: dose 1 mg/kg, route oral; conditions: in vivo
MEASURED_METRIC: Cmax

>>> recorded_value("C[C@H]1[C@H](c2ccc(F)cc2)OC(=O)N1c1cc(C#N)cc(C#N)c1")
"280 ng/mL"

----------
Form field: pIC50 (one value per entry).
target: Acyl-CoA (8-3)-desaturase (Homo sapiens, UniProt O60427); experiment: Inhibition of D5D in human HepG2 cells assessed as [14C]AA formation from [14C]DGLA preincubated for 30 mins followed by [14C]eicosatrienoic acid addition measured after 3 hrs by TLC analysis
Sequence (O60427 whole entry): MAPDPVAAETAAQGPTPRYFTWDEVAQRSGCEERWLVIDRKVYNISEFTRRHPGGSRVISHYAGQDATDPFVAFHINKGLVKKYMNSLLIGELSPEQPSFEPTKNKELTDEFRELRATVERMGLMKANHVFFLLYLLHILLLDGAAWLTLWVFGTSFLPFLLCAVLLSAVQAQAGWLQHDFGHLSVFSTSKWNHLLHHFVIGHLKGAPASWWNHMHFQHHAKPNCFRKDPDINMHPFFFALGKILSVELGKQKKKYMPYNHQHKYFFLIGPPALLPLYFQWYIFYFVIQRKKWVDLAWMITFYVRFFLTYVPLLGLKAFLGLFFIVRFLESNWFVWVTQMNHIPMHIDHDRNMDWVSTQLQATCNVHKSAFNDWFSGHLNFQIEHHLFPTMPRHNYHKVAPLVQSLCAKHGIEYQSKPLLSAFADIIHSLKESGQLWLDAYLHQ
pIC50: −log10 of the molar value.
MEASURED_METRIC: pIC50

>>> recorded_value("O=C1OC(c2ccc(F)cc2)CN1c1cccc(F)c1 (racemic)")
6.77
>>> recorded_value("O=C1OC(c2ccc(F)cc2)CN1c1cccc(Cl)c1 (racemic)")
7.26
>>> recorded_value("C[C@H]1[C@H](c2ccc(F)cc2)OC(=O)N1c1cccc(C#N)c1")
8.06
>>> recorded_value("N#Cc1cccc(N2CC(c3ccc(F)cc3)OC2=O)c1 (racemic)")
6.77
>>> recorded_value("O=C1OC(c2ccc(F)cc2)CN1Cc1ccc(Cl)cc1Cl (racemic)")
6.82
>>> recorded_value("C[C@H]1[C@H](c2ccc(F)cc2)OC(=O)N1c1cccc(C#N)c1 (racemic)")
8.05
>>> recorded_value("C[C@H]1[C@H](c2ccc(F)cc2)OC(=O)N1c1cc(Cl)cc(C#N)c1")
9.28
>>> recorded_value("O=C1OC(c2ccccc2)CN1Cc1cc(O)c(Cl)cc1Cl (racemic)")
5.96
>>> recorded_value("O=C1OC(c2ccc(F)cc2)CN1c1ccccc1 (racemic)")
6.72

----------
system: Liver; assay: Drug metabolism in mouse liver assessed as (2S,3S,4S,5R,6S)-6-(3-(5-(4-fluorophenyl)-2-oxooxazolidin-3-yl)phenoxy)-3,4,5-trihydroxytetrahydro-2H-pyran-2-carboxylic acid formation at 488 mg/kg/day, po by LC-MS/MS analysis; assay type: ADME, organism-based; conditions: in vivo
MEASURED_METRIC: Drug metabolism

>>> recorded_value("COc1cccc(N2CC(c3ccc(F)cc3)OC2=O)c1 (racemic)")
"0.83 to 2.5 µg/g"

----------
Reported bioavailability values are given for each entry in this list.
test: Oral bioavailability in mouse at 0.1 mg/kg, iv or 1 mg/kg administered as cassette dose up to 8 hrs; type: ADME, organism-based; conditions: in vivo
MEASURED_METRIC: bioavailability (%)

>>> recorded_value("C[C@H]1[C@H](c2ccc(F)cc2)OC(=O)N1c1cccc(C#N)c1")
87.2
>>> recorded_value("C[C@H]1[C@H](c2ccc(F)cc2)OC(=O)N1c1cc(F)cc(C#N)c1 (racemic)")
61
>>> recorded_value("C[C@H]1[C@H](c2ccc(F)cc2)OC(=O)N1c1cc(Cl)cc(C#N)c1")
74.4
>>> recorded_value("C[C@H]1[C@H](c2ccc(F)cc2)OC(=O)N1c1cc(C#N)cc(C#N)c1")
53.3

----------
molecular target: Acyl-CoA (8-3)-desaturase (Homo sapiens, UniProt O60427); assay: Inhibition of D5D in human HepG2 cells assessed as [14C]AA formation from [14C]DGLA preincubated for 30 mins followed by [14C]eicosatrienoic acid addition measured after 3 hrs by TLC analysis
pIC50: −log10 of the molar value.
Entries and their pIC50 values follow.
MEASURED_METRIC: pIC50

>>> recorded_value("N#Cc1cccc(N2C[C@H](c3ccc(F)cc3)OC2=O)c1")
7.22
>>> recorded_value("C[C@H]1[C@H](c2ccc(F)cc2)OC(=O)N1c1cc(F)cc(C#N)c1 (racemic)")
8.43
>>> recorded_value("C[C@H]1[C@H](c2ccc(F)cc2)OC(=O)N1c1cc(C#N)cc(C#N)c1")
8.82
>>> recorded_value("COc1ccc(OC)c(N2CC(c3ccc(F)cc3)OC2=O)c1 (racemic)")
7.74
>>> recorded_value("COc1cccc(N2CC(c3ccc(F)cc3)OC2=O)c1 (racemic)")
8.39

----------
tested on: Liver; assay: Drug metabolism in mouse liver assessed as 3-(5-(4-fluorophenyl)-4-hydroxy-2-oxooxazolidin-3-yl)phenyl hydrogen sulfate formation at 488 mg/kg/day, po by LC-MS/MS analysis; format: ADME, organism-based; details: in vivo
MEASURED_METRIC: Drug metabolism

>>> recorded_value("COc1cccc(N2CC(c3ccc(F)cc3)OC2=O)c1 (racemic)")
"0.48 to 1.78 µg/g"

----------
system: Liver; experiment: Metabolic stability in mouse liver microsomes; type: ADME, microsome
MEASURED_METRIC: Stability (µL/min/mg)

>>> recorded_value("N#Cc1cccc(N2C[C@H](c3ccc(F)cc3)OC2=O)c1")
50
>>> recorded_value("C[C@H]1[C@H](c2ccc(F)cc2)OC(=O)N1c1cccc(C#N)c1")
24
>>> recorded_value("N#Cc1cccc(N2CC(c3ccc(F)cc3)OC2=O)c1 (racemic)")
94
>>> recorded_value("C[C@@H]1[C@H](c2ccc(F)cc2)OC(=O)N1c1cccc(C#N)c1 (racemic)")
7

----------
biological target: Acyl-CoA (8-3)-desaturase (Rattus norvegicus); test: Displacement of [3H]T-3364366 from D5D in rat liver microsomal membrane preincubated for 15 mins followed by radioligand addition measured after 150 mins by TopCount microscintillation counting assay
Sequence (Q920R3 whole entry): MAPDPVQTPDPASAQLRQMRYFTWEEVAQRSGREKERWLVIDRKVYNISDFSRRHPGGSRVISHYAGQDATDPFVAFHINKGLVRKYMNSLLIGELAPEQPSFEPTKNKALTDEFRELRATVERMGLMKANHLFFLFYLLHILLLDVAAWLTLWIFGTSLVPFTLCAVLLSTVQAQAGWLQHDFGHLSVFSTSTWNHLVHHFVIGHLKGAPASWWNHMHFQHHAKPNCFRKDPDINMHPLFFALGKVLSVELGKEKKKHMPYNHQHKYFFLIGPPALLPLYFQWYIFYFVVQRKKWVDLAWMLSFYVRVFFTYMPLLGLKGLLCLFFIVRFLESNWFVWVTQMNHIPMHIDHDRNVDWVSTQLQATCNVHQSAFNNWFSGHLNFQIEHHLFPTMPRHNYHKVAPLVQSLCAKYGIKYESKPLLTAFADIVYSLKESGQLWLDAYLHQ
pIC50: −log10 of the molar value.
# cutoff 8 applies to pIC50; >= gives Yes, < gives No

>>> cat("COc1ccc(CN(C)C(=O)c2ccc3c(c2)OCO3)c(OC)c1")
"No"
>>> cat("Cn1c(=O)n(Cc2cc(O)c(Cl)cc2Cl)c2ccccc21")
"No"
>>> cat("CCn1cc(C(=O)N(C)C(C)c2ccc(F)cc2)c2ccccc21 (racemic)")
"No"
>>> cat("C[C@H]1[C@H](c2ccc(F)cc2)OC(=O)N1c1cc(C#N)cc(C#N)c1")
"Yes"
>>> cat("C[C@@H]1[C@H](c2ccc(F)cc2)OC(=O)N1c1cccc(C#N)c1 (racemic)")
"No"
>>> cat("CC1(C)C(c2ccc(F)cc2)OC(=O)N1c1cccc(C#N)c1 (racemic)")
"No"
>>> cat("C[C@H]1[C@H](c2ccc(F)cc2)OC(=O)N1c1cc(Cl)cc(C#N)c1")
"Yes"

The reported measurements were obtained from ChEMBL document CHEMBL4024749.
